Attribution: PubChem BioAssay (NCI)

tested on: UO-31 renal; assay: NCI tumour cell line growth inhibition, 48 h; in the data active means GI50 below about 0.43 µM; inactive means the rest
Classes used: active, inactive

{"Compound": "Cc1ccc(S(=O)(=O)OC[C@]23CCC(C)(C)C[C@H]2C2=CC[C@@H]4[C@@]5(C)CCCNC(C)(C)[C@@H]5CC[C@@]4(C)[C@]2(C)CC3)cc1", "Qualitative label": "inactive"}
{"Compound": "CN(CCC#N)c1ccc(/C=C(\\C#N)c2cccc(C(F)(F)F)c2)cc1", "Qualitative label": "inactive"}
{"Compound": "CC(=O)[CH-]C(=O)c1ccccc1.CC(=O)[CH-]C(=O)c1ccccc1.COc1cccc([O-])c1[O-].[Ti+4]", "Qualitative label": "inactive"}
{"Compound": "COc1cc(-c2n/c(=C\\c3c(O)[nH]c4ccc(Cl)cc34)cc3c2=Nc2ccccc2-3)cc(OC)c1OC", "Qualitative label": "inactive"}
{"Compound": "Cc1oc2nc[nH]c(=O)c2c1C(=O)/C=C/c1ccc(Cl)cc1", "Qualitative label": "inactive"}
{"Compound": "Cc1cc(Cc2cc(C)c(O)c(C)c2)cc(C)c1O", "Qualitative label": "inactive"}
{"Compound": "O=C(/C=C1\\C(=O)N(Cc2ccc([N+](=O)[O-])cc2)c2ccccc21)c1ccc(OCCN2CCCCC2)cc1", "Qualitative label": "inactive"}
{"Compound": "Cc1cc(N2CCN(C)CC2)nc(NCc2cc(Nc3ccnc4cc(Cl)ccc34)ccc2F)n1", "Qualitative label": "inactive"}
{"Compound": "NC(=O)c1cc(-c2ccncc2)cc(-c2ccccc2)c1N", "Qualitative label": "inactive"}
{"Compound": "COc1ccc2c(c1)[C@]1(C[C@H]1c1ccc3c(/C=C/c4ccc(CN5C[C@@H](C)O[C@@H](C)C5)cc4)n[nH]c3c1)C(=O)N2", "Qualitative label": "inactive"}
{"Compound": "O=C(/C=C/C12c3ccccc3C(c3ccccc31)C1C(=O)N(c3ccccc3)C(=O)C12)c1ccc(Cl)cc1 (stereo not drawn)", "Qualitative label": "inactive"}
{"Compound": "CN(Cc1cnc(N)nc1N)c1ccc(C(=O)O)cc1", "Qualitative label": "inactive"}
{"Compound": "CC[C@@]1(OC(=O)CN)C(=O)OCc2c1cc1n(c2=O)Cc2cc3cc4c(cc3nc2-1)OCO4", "Qualitative label": "active"}

----------
Entries annotated with measured TGI
system: OVCAR-3 ovarian; assay: NCI tumour cell line growth inhibition, 48 h

{"Compound": "N#CNC(N)=NCCO", "TGI": "> 100 µM"}
{"Compound": "Cc1nc(Cl)c2sc(=S)n(-c3ccc(F)cc3)c2n1", "TGI": "7.02 µM"}
{"Compound": "O=c1[nH]c(=O)n(C2CC(O)C(CO)O2)cc1OCCc1ccccc1 (centres undefined)", "TGI": "> 100 µM"}
{"Compound": "COc1ccc(NS(=O)c2ccc(-c3ccccc3)cc2)cc1 (centres undefined)", "TGI": "> 100 µM"}

----------
Consider the following molecules and their measured TGI readings.
system: RPMI-8226 leukemia; assay: NCI tumour cell line growth inhibition, 48 h

{"Molecule": "C/C(=N/NC(=O)c1ccncc1)c1ccc(NC(=O)C(=O)Nn2c(=S)[nH]c3ccccc3c2=O)cc1", "TGI": "> 100 µM"}
{"Molecule": "CC(NC(=O)C(OC(=O)C(C)NC(=O)OC(C)(C)C)C(C)C)C(=O)OC(C(=O)O)C(C)C (stereo not given)", "TGI": "> 100 µM"}
{"Molecule": "COc1ccc(NS(=O)c2ccc(-c3ccccc3)cc2)cc1 (stereo not given)", "TGI": "> 100 µM"}
{"Molecule": "O=S(=O)(C(=Ic1ccccc1)S(=O)(=O)C(F)(F)C(F)(F)C(F)(F)C(F)(F)F)C(F)(F)C(F)(F)C(F)(F)C(F)(F)F", "TGI": "86.4 µM"}
{"Molecule": "CC(=O)[CH-]C(=O)c1ccccc1.CC(=O)[CH-]C(=O)c1ccccc1.COc1cccc([O-])c1[O-].[Ti+4]", "TGI": "> 100 µM"}
